src = ChEMBL document CHEMBL1156940

Consider the following compounds; for each one, report its pEC50.
- Tested on: HT-29
- Test summary: Antiproliferative activity against human HT-29 cells after 48 hrs by cell titer-glo assay
- Format: functional, cell-based
- Measurement context: HT-29, 48 h
Numbers only, as −log10 of the molar value.

// known answers, use as guide
O=C(CCCCCCC(=O)Nc1ccc(F)cc1)NO : 5.38
O=C(CCCCCCC(=O)Nc1cccc(F)c1)NO : 5.85
O=C(CCCCCCC(=O)Nc1ccc(Cl)cc1)NO : 5.68
O=C(CCCCCCC(=O)Nc1ccc(C(F)(F)F)cc1)NO : 5.85

Below is a list of compounds. For each, state its recorded pEC50.
1. O=C(CCCCCCC(=O)Nc1ccc2ccccc2c1)NO
2. O=C(CCCCCCC(=O)Nc1ccc(I)cc1)NO

1: 6.07; 2: 6.02

Below is a list of compounds. For each, state its recorded pEC50.
1. O=C(CCCCCCC(=O)Nc1ccccc1-c1ccccc1)NO
2. O=C(CCCCCCC(=O)Nc1cccc(C(F)(F)F)c1)NO
3. O=C(CCCCCCC(=O)Nc1cccc(Cl)c1)NO
4. O=C(CCCCCCC(=O)Nc1ccc([N+](=O)[O-])cc1)NO
5. O=C(CCCCCCC(=O)Nc1ccc2c(c1)Cc1ccccc1-2)NO
6. Nc1ccc(NC(=O)CCCCCCC(=O)NO)cc1

[4.57, 5.19, 6.00, 4.12, 5.60, 4.74]
